target: D(2) dopamine receptor (Homo sapiens); test: HTS Assay for Allosteric Antagonists of the Human D2 Dopamine Receptor: Primary Screen for Antagonists; conditions: HEK293 TREx D2 cells, calcium flux, dopamine EC80; at 10 µM; also: 0% is about no effect
Among all 340,000 compounds or so, about 6,900 (2%) were called active. Rule as the data show it: active = inhibition above about 30%; inactive = below that, where a call was filed. Only a selection was taken, and actives are over-represented in it overall.
Classes used: active, inactive

Compound | Assigned Class
COc1ccc(C(=O)NCc2ccc(C)cc2)cc1S(=O)(=O)N1CCCC1 | inactive
CC1(C(=O)OCC(=O)Nc2ncc(Cl)cc2Cl)CC1(Cl)Cl (stereo unspecified) | inactive
CC(=O)N1CCc2c(sc(NC(=O)CCS(=O)(=O)c3ccc(C)cc3)c2C(N)=O)C1 | inactive
CCC(C)N(C(=O)CSc1ncnc2c1cnn2-c1ccccc1)C1CCS(=O)(=O)C1 (stereo unspecified) | inactive
CCCc1cc(=O)[nH]c(SCC(=O)N2CCN(S(=O)(=O)c3ccc(C)cc3C)CC2)n1 | active
CC(C)n1ncc2c(C(=O)NCc3ccccc3CN(C)C)cc(C3CC3)nc21 | active
O=C(C(Cl)Cl)N1CCN(c2ccccn2)CC1 | inactive
COc1ccc(C)cc1NC(=O)c1cc(-c2ccccc2)nc2c1cnn2C(C)C | inactive
O=c1oc2ccc(C#CC3(O)CCCCC3)cc2cc1-n1cc(-c2ccsc2)nn1 | inactive
COc1ccc(N2CCN(C(C)=C3C(=O)c4ccccc4C3=O)CC2)cc1 | inactive
CN(Cc1ccccc1Cl)C(=O)C1CCC(=O)N(CCc2cccc(F)c2)C1 (stereo unspecified) | inactive
CCNC(=O)c1cccc(NC(=O)C2CC(=O)N(CCc3ccccc3)C2)c1 (stereo unspecified) | inactive
CCCn1c(N)c(C(=O)CSc2nnc3n2CCCCC3)c(=O)[nH]c1=O | inactive
Cc1cccc(NC(=O)C2CCCN(C(=O)Nc3ccc(F)cc3)C2)c1C (stereo unspecified) | active
O=c1ccc2c(-c3ccccc3S(=O)(=O)O)c3ccc(O)c(O)c3oc-2c1O | inactive
O=C1C=C(c2cccc(Br)c2)C[C@@H](c2ccc(F)cc2)C1 | inactive
O=C(NCC(c1ccco1)N1CCc2ccccc21)c1cccc(F)c1 (stereo unspecified) | inactive
COC(=O)C1CCN(C(=O)NC2CC(=O)N(c3ccc4c(c3)OCCO4)C2)CC1 (stereo unspecified) | inactive
Cc1cccc(NC(=O)N2CCCCCC2)c1C | inactive
CCN(C(=O)COC(=O)C1CCN(S(=O)(=O)c2ccc(C)c(C)c2)CC1)C1CCS(=O)(=O)C1 (stereo unspecified) | inactive
O=C(Cn1[nH]c(=O)c2ccccc2c1=O)Nc1cccc(-c2nnc3n2CCCCC3)c1 | inactive

* * *

target: D(2) dopamine receptor (Homo sapiens) (UniProt P14416); experiment: HTS Assay for Allosteric Antagonists of the Human D2 Dopamine Receptor: Primary Screen for Antagonists; details: HEK293 TREx D2 cells, calcium flux, dopamine EC80; at 10 µM; stronger effect = higher value; also: 0% is about no effect
Sequence (P14416 whole entry, looked up): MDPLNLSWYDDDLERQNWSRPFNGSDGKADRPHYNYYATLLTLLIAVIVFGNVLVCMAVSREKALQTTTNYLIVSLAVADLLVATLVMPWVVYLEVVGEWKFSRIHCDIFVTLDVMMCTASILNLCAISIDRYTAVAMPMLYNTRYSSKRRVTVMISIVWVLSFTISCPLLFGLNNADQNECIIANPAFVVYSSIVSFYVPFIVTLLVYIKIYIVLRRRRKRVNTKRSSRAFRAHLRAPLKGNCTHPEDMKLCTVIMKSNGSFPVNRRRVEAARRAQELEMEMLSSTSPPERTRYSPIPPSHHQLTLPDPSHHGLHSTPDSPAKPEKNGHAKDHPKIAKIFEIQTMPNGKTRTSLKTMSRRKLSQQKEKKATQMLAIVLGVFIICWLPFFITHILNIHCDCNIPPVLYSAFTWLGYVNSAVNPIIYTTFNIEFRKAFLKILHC
Among all 340,000 compounds or so, about 6,900 (2%) were called active. Many of the other results were omitted from the sample, so actives are more common in it than they were.
Parameter: inhibition (%)

Compound | Parameter | Measurement
O=C(Cn1c(=O)sc2ccccc21)Nc1ccc2c(c1)OCCO2 | inhibition | -10.2
Cc1nnc(NC(=O)c2ccc3nccnc3c2)s1 | inhibition | 3.14
COC(=O)C1CCN(C(=O)c2cc(=O)[nH]c3ccccc23)CC1 | inhibition | 17.7
O=C(Nc1ccccc1)C1CC(=O)n2c(nc3ccccc32)N1 (stereo unspecified) | inhibition | 33.6
O=C(NC1CCCCC1)N1CCc2[nH]c3ccccc3c2C1 | inhibition | -14.3
Cn1c(=O)c2ccccc2n(CC(=O)Nc2ccc3c(c2)OCCO3)c1=O | inhibition | 0.133
O=[N+]([O-])c1ccccc1Nc1ccc(O)cc1 | inhibition | 48.5
O=C(CN1CCC(O)(c2ccccc2)CC1)Nc1ccc2c(c1)OCCO2 | inhibition | 94.9
COc1ccc(Cl)cc1NC(=O)CN(C)C(=O)c1ccc2n[nH]nc2c1 | inhibition | -5.47
CC1CC1C(=O)OCC(=O)Nc1cccc(F)c1 (stereo unspecified) | inhibition | 17.3
CC(=O)c1ccc(NC(=O)C2CC(=O)Nc3nc4ccccc4n32)cc1 (stereo unspecified) | inhibition | -1.67

The measured values listed here are drawn from PubChem BioAssay AID485344.
